Values compiled from patent US8629159B2.

Items are presented alongside their recorded Binding to PPARγ (Fluormone displacement signal).
Target: PPARγ (Homo sapiens)
Construct: purchased Invitrogen Corporation, Carlsbad, Calif
Experiment: commercial PPARγ binding assay (Invitrogen; PPAR-LBD/Fluormone PPAR Green complex)
Conditions: 50 μM compound; mean of three experiments
reportedEndpoint: Binding to PPARγ (Fluormone displacement signal)

[
  {
    "molecule": "CCc1ccc(CCOc2ccc(CC3(C)SC(=O)NC3=O)cc2)nc1 (single isomer, unassigned) [Compound 6]",
    "measuredNumber": 126
  },
  {
    "molecule": "CCc1ccc([C@H](O)COc2ccc(CC3(C)SC(=O)NC3=O)cc2)nc1 (some centres unmarked)",
    "measuredNumber": 189
  },
  {
    "molecule": "CCc1ccc(C(COc2ccc(CC3SC(=O)NC3=O)cc2)CC(=O)OC)nc1 (centres unmarked)",
    "measuredNumber": 80
  },
  {
    "molecule": "CCc1ccc(CCOc2ccc(CC3(C)SC(=O)NC3=O)cc2)nc1 (single isomer, unassigned) [Compound 7]",
    "measuredNumber": 144
  },
  {
    "molecule": "CCc1ccc(C(=CCO)COc2ccc(CC3SC(=O)NC3=O)cc2)nc1 (centres unmarked)",
    "measuredNumber": 148
  },
  {
    "molecule": "CCc1ccc(C(O)COc2ccc(CC3(C)SC(=O)NC3=O)cc2)nc1 (centres unmarked)",
    "measuredNumber": 132
  },
  {
    "molecule": "CCc1ccc(C(=CC(=O)OC)COc2ccc(CC3SC(=O)NC3=O)cc2)nc1 (centres unmarked)",
    "measuredNumber": 128
  },
  {
    "molecule": "CCc1ccc([C@H](O)COc2ccc(CC3SC(=O)NC3=O)cc2)nc1 (some centres unmarked)",
    "measuredNumber": 88
  }
]

###

Items are presented alongside their recorded Binding to PPARγ (Fluormone displacement signal).
Biological target: PPARγ (Homo sapiens, UniProt P37231)
Construct: purchased Invitrogen Corporation, Carlsbad, Calif
Sequence (P37231 238-503 limits assumed): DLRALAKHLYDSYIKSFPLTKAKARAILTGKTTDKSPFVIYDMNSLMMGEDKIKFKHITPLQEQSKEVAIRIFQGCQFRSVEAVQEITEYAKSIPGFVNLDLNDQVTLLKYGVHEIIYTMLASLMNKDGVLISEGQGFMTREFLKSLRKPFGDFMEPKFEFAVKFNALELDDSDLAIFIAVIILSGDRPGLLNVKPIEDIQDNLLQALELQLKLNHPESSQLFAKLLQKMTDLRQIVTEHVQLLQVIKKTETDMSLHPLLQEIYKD
Assay: commercial PPARγ binding assay (Invitrogen; PPAR-LBD/Fluormone PPAR Green complex)
Conditions: .1 μM compound; mean of three experiments
reportedEndpoint: Binding to PPARγ (Fluormone displacement signal)

[
  {
    "molecule": "CCc1ccc(CCOc2ccc(CC3(C)SC(=O)NC3=O)cc2)nc1 (single isomer, unassigned) [Compound 4]",
    "testSystem": "PPARγ (Homo sapiens, UniProt P37231)",
    "measuredNumber": 236
  },
  {
    "molecule": "CCc1ccc(C(O)COc2ccc(CC3(C)SC(=O)NC3=O)cc2)nc1 (stereo not shown) [Compound 5]",
    "testSystem": "PPARγ (Homo sapiens, UniProt P37231)",
    "measuredNumber": 235
  },
  {
    "molecule": "CCc1ccc(C(=O)COc2ccc(CC3SC(=O)NC3=O)cc2)nc1 (stereo not shown) [Compound 1]",
    "testSystem": "PPARγ (Homo sapiens, UniProt P37231)",
    "measuredNumber": 227
  },
  {
    "molecule": "CCc1ccc(C(=CC(=O)OC)COc2ccc(CC3SC(=O)NC3=O)cc2)nc1 (stereo not shown) [Compound 11]",
    "testSystem": "PPARγ (Homo sapiens, UniProt P37231)",
    "measuredNumber": 230
  }
]
